Molecular target: ATP-dependent DNA helicase Q1 (Homo sapiens)
Test: qHTS Validation Assay for Inhibitors of RecQ-Like Dna Helicase 1 (RECQ1) (AID 2353)
Settings: recombinant RECQ1 helicase DNA unwinding assay; series mostly up to 25.6 µM
Activity calls are given as the source filed them. The call rests on the fitted dose curve; in most records, active means well fitted inhibition curve with a large enough effect; inconclusive means small, poorly fitted or top-dose-only effect; inactive means flat fitted curve, though single readings scatter.
propertyMeasured: outcome

compound	propertyMeasured	result
Oc1cc(O)cc(/C=C/c2ccc(O)c(O)c2)c1	outcome	inactive
CCCCCC(O)c1cccc(OCc2ccc3ccccc3n2)c1 (stereo unspecified)	outcome	inactive
CCCn1c(=O)c2[nH]c(-c3ccc(OCC(=O)NCCN)cc3)nc2n(CCC)c1=O	outcome	inactive
Oc1ccc(C2CNCc3sccc32)cc1O (stereo unspecified)	outcome	inactive
O=C(O)c1cc(=O)c2c(Cl)cc(Cl)cc2[nH]1	outcome	inactive

Proceed to the following item.
Ask | Sample COc1cc2nc(N3CCN(C(=O)OCc4ccccc4)C(C(=O)NC(C)(C)C)C3)nc(N)c2cc1OC (stereo unspecified) — what was its outcome?
Reply | inactive
